Data origin: the supplement of paper PMC7877785

# assayComment: self-splicing fitness, log relative to wild type (ln ratio); higher = more splicing; Tetrahymena group I intron in knt gene, E. coli kanamycin selection, DiMSum; sequences stand for … in CUCUCU…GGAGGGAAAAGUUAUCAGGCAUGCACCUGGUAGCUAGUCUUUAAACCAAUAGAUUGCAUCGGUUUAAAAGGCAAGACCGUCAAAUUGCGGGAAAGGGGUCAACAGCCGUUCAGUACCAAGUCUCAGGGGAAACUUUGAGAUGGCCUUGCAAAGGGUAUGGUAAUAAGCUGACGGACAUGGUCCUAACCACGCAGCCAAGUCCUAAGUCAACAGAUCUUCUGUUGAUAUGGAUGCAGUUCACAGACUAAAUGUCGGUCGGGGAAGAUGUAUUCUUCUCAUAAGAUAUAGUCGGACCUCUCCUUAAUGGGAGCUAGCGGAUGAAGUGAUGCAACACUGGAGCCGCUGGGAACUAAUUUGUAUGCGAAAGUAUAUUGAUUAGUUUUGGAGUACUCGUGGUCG;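 note: selection with 25 µg/mL kanamycin versus none on LB agar overnight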
# conditionInfo: 37 °C

| seqText | self-splicing fitness (ln) |
| --- | --- |
| UGUUAGCAAUAUUACGCGCC | -0.207 |
| UGGCAGCAAUAUUACGACAU | -0.812 |
| GUUUAGCAAUAUUACGUGAC | -0.596 |
| GAGAAGCAAUAUUACGGGUU | -1.87 |
| UUGCAGCAAUAUUACGGCAA | -2.27 |
| CCGAAGCAAUAUUACGCAGA | -2.57 |
| AGGUAGCAAUAUUACGUUGA | -1.61 |
| GGGGAGCAAUAUUACGAUUC | -0.791 |
| ACGAAGCAAUAUUACGUCCA | -0.457 |
| UAACAGCAAUAUUACGGACC | -1.98 |
| AUCUAGCAAUAUUACGAAAC | -1.96 |
| AAGCAGCAAUAUUACGUUGG | -1.45 |
| GAGCAGCAAUAUUACGUGAG | -0.264 |
| CACCAGCAAUAUUACGGACU | -2 |
| CCCGAGCAAUAUUACGUGGA | -2.81 |
| CUUAAGCAAUAUUACGAAUA | -3.17 |
| UGAGAGCAAUAUUACGCUGA | -1.53 |
| CCAGAGCAAUAUUACGCCUG | -2.66 |
| CUCAAGCAAUAUUACGAACA | -0.994 |
| UGUCAGCAAUAUUACGUUAC | -2.77 |
| CACCAGCAAUAUUACGUCAA | -2.31 |
| UGUGAGCAAUAUUACGGCUC | -3.18 |
| CGUUAGCAAUAUUACGCCCA | 0.14 |
| CGAAAGCAAUAUUACGCACG | -2.03 |
| UCCUAGCAAUAUUACGACGC | -2.02 |
| GGCCAGCAAUAUUACGACGA | -1.98 |
| UUCAAGCAAUAUUACGCUAC | -1.52 |
| UUAUAGCAAUAUUACGGUUA | -0.0464 |
| CCAAAGCAAUAUUACGCAUG | -0.772 |
| ACUCAGCAAUAUUACGGGUU | -2.37 |
| AUAAAGCAAUAUUACGCUUG | -0.368 |
| UUAGAGCAAUAUUACGGUCU | -2.66 |
| UGCAAGCAAUAUUACGUACG | -0.478 |
| AACUAGCAAUAUUACGACGC | -0.205 |
| UCCAAGCAAUAUUACGCAGU | -0.856 |
| CCGCAGCAAUAUUACGGGUC | -2.69 |
| GAUAAGCAAUAUUACGUUGU | -2.6 |
| GUAUAGCAAUAUUACGGACC | -2.56 |
| AGGAAGCAAUAUUACGAACG | -0.0957 |
| UGCAAGCAAUAUUACGUGAC | -2.19 |
| CAGGAGCAAUAUUACGAGCG | 0.24 |
| ACAUAGCAAUAUUACGCUAA | -0.742 |
| CUGGAGCAAUAUUACGUUAU | -2.82 |
| UUCGAGCAAUAUUACGACGG | -0.685 |
| UAGUAGCAAUAUUACGUUCA | 0.327 |
| GCCGAGCAAUAUUACGAGUA | -1.43 |
| GCCAAGCAAUAUUACGCACG | -1.08 |
| CAUUAGCAAUAUUACGUGAA | -3.18 |
| UAGUAGCAAUAUUACGCAAG | -1.25 |
| CUCCAGCAAUAUUACGGGUA | -1.11 |
| CAUGAGCAAUAUUACGCGUG | -2.71 |
| UUUCAGCAAUAUUACGGCCG | -0.968 |
| CCCAAGCAAUAUUACGCAAC | -2.71 |
| GGUGAGCAAUAUUACGACAU | -0.567 |
| ACUUAGCAAUAUUACGGAGC | -0.469 |
| GUGGAGCAAUAUUACGGGGA | -2.65 |
| AAGCAGCAAUAUUACGUUCG | -0.509 |
| UCACAGCAAUAUUACGGAUC | -3.11 |
| AUUAAGCAAUAUUACGUUAU | -1.1 |
| ACCUAGCAAUAUUACGGCGC | 0.63 |
| AGCGAGCAAUAUUACGCCUG | -2.24 |
| AAUGAGCAAUAUUACGAGCU | -3.57 |
| UUGAAGCAAUAUUACGUACC | -1.07 |
| AGAUAGCAAUAUUACGGACA | -0.224 |
| UUCGAGCAAUAUUACGUCCA | -1.75 |
| UACUAGCAAUAUUACGACGC | 0.0923 |
| CGGGAGCAAUAUUACGGUCA | -1.93 |

* * *

# assayComment: self-splicing fitness, log relative to wild type (ln ratio); higher = more splicing; Tetrahymena group I intron in knt gene, E. coli kanamycin selection, DiMSum; sequences stand for … in CUCUCU…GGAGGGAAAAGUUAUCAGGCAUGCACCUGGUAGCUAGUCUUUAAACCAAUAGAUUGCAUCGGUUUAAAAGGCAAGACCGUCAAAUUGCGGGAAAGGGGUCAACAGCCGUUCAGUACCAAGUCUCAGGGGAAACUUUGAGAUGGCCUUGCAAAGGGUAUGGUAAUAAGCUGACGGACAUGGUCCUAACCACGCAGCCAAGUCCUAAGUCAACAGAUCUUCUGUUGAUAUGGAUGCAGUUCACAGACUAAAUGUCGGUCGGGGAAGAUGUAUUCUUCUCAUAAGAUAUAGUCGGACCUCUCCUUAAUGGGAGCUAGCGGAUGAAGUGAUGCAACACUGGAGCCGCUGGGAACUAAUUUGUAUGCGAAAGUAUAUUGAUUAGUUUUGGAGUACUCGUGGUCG
# conditionInfo: 37 °C
self-splicing fitness (ln) reference
recordedMetric: self-splicing fitness (ln)

| seqText | recordedMetric | recordedNumber |
| --- | --- | --- |
| UAGCAGCAAUAUUACGGAGA | self-splicing fitness (ln) | -2.18 |
| UAUGAGCAAUAUUACGUCUA | self-splicing fitness (ln) | -0.408 |
| GGCCAGCAAUAUUACGAGGG | self-splicing fitness (ln) | -1.75 |
| GUUUAGCAAUAUUACGCAAG | self-splicing fitness (ln) | -0.942 |
| AGAAAGCAAUAUUACGUAUG | self-splicing fitness (ln) | -3.05 |
| CAGAAGCAAUAUUACGGUAC | self-splicing fitness (ln) | -1.72 |
| UUGUAGCAAUAUUACGCUCG | self-splicing fitness (ln) | -0.456 |
| GGUGAGCAAUAUUACGAACA | self-splicing fitness (ln) | 0.394 |

* * *

Measured self-splicing fitness (ln), listed per entry for reference.
# assayComment: self-splicing fitness, log relative to wild type (ln ratio); higher = more splicing; Tetrahymena group I intron in knt gene, E. coli kanamycin selection, DiMSum; sequences stand for … in CUCUCU…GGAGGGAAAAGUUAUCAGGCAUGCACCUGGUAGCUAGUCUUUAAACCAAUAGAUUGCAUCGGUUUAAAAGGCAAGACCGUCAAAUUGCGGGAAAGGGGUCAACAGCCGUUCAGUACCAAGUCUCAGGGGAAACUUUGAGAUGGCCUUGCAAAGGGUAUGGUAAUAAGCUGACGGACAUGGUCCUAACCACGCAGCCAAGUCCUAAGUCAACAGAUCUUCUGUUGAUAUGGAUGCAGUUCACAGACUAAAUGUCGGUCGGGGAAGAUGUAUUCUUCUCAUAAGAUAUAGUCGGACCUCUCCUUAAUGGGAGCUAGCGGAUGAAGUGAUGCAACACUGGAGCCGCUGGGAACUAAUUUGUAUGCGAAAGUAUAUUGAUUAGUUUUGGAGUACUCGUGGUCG
# conditionInfo: 37 °C
recordedMetric: self-splicing fitness (ln)

| seqText | recordedMetric | recordedNumber |
| --- | --- | --- |
| GUUGAGCAAUAUUACGAUUA | self-splicing fitness (ln) | -1.23 |
| UGCAAGCAAUAUUACGGCGC | self-splicing fitness (ln) | -2.84 |
| CAAUAGCAAUAUUACGGGGC | self-splicing fitness (ln) | -2.45 |
| UAACAGCAAUAUUACGUAGU | self-splicing fitness (ln) | -2.7 |
| AUGUAGCAAUAUUACGAAUU | self-splicing fitness (ln) | -1.84 |
| AAAAAGCAAUAUUACGGAUU | self-splicing fitness (ln) | -0.635 |
| UCAAAGCAAUAUUACGACUU | self-splicing fitness (ln) | -2.36 |
| GUACAGCAAUAUUACGUUCG | self-splicing fitness (ln) | -0.316 |
